Target: T1, HER2-ECD-Fc (human, UniProt P04626 23-652)
T1 construct: extracellular domain; Produced in FreeStyle 293F cells; also called HER2-ECD Fc fusion protein
Test: ELISA on HER2-ECD-Fc; antibody at 5 × 10^-1 µg/mL
Consider the following binders; for each one, report its absorbance.
Field format: numeric only.

Ask: So what does the record say about absorbance for 24D3 (antibody, V domains shown) VH: EVKLVESGGGLVKPGGSLKLSCAASGFTFSSCAMSWVRQTPEKRLEWVATISGGGSYTYYPDSVKGRFTISRDNAKNTLYLQMSSLRSEDTAMYYCARHGGYESWFPYWGQGTLVTVSA VL: DIVMTQSPLSLPVSLGDQASISCRSSQSLVHSNGNTYLHWYLQKPGQSPKLLIYKVSNRFSGVPDRFSGSGSGTDFTLKISRVEAEDLGVYFCSQSTHVPPWTFGGGTKLEIK ?
Reply: 2.9

Ask: Please give the measured absorbance for this binder: hz8G11 (antibody, V domains shown, Humanized antibody, detected with anti-human IgG-HRP; also called humanized 8G11 antibody) VH: QVQLVQSGQEVKKPGASVKVSCKASGYSFTGYYMHWVRQAPGQGLEWIGHINPNNGGTSYNQKFKGRTTLTVDKSISTAYMELSRLRSDDTAVYYCAREEAFAYWGQGTLVTVSS VL: DIQMTQSPSSLSASVGDRVTISCRASQDISNYLNWYQQKPGKAPKLLIYYTSRLHSGVPSRFSGSGSGTDFSLTISSLQPEDIATYYCQQGITPPWTFGGGTKVEIK
Reply: 2.94

Ask: Any idea what absorbance was measured for hz39D2 (antibody, V domains shown, Humanized antibody, captured as IgG by anti-human IgG in SPR; also called humanized 39D2 antibody) VH: QVQLVQSGSELKKPGASVKVSCKASGYTFTNYGVNWVRQAPGQGLEWMGWINTHTGEPTYAEEFKGRFVFSLDTSVSTAYLQISSLKAEDTAVYYCARDDYYVRVDYWGQGTTVTVSS VL: DIQMTQSPSSLSASVGDRVTITCKASQDINSYLSWFQQKPGKAPKTLIYRANRLVDGVPSRFSGSGSGQDYTLTISSLQPEDFATYYCLQYDEFPWTFGQGTKVEIK ?
Reply: 2.78

Ask: What value of absorbance has been reported for the following binder? 1G3 (antibody, V domains shown) VH: EVQLQQSGAELVKPGASVKLSCTASDFNIVDTYMHWVKQRPEQGLEWIGRIDPANGYTRYDPNFQGKATITADTSSNTAYLQLSSLTSEDTAVYYCARYYYGFYAMDYWGQGTTVTVSS VL: DIVMTQSHKFMSTSVGDRVSITCKASQDVSTAVAWYQQKPGQSPKLLIYSASYRYTGVPDRFTGSGSGTDFTFTISSVQAEDLAVYYCQQHYSTPPTFGGGTKLELK
Reply: 2.78
